- studySystem: Cannabinoid receptor 2 (Homo sapiens, UniProt P34972)
- Sequence (P34972 whole entry): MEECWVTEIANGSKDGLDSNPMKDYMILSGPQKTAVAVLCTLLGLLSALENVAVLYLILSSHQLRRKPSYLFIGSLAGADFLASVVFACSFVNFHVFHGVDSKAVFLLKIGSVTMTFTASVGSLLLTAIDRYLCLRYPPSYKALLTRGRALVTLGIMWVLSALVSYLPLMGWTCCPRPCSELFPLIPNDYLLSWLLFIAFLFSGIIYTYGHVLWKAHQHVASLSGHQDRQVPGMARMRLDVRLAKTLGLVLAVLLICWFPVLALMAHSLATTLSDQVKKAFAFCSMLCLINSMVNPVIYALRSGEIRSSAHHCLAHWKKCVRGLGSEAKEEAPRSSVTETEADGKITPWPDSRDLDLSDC
- protocolDescription: Antagonist activity at human CB2 receptor transfected in CHO cells assessed as inhibition of WIN 55,212-2 mediated suppression of forksolin induced cAMP production by scintillation counting analysis
pIC50: −log10 of the molar value.
measuredAttribute: pIC50

samplesmiles=CCCCCn1cc(C(=O)NC2CCCCC2)c(=O)n2nc(-c3ccc(C)cc3)nc12 measured=7.10
samplesmiles=CCCCCn1cc(C(=O)NC2CCCCCC2)c(=O)n2nc(-c3ccccc3)nc12 measured=6.85
samplesmiles=CCCCCn1cc(C(=O)NC23CC4CC(CC(C4)C2)C3)c(=O)n2nc(N(C)Cc3ccccc3)nc12 measured=7.54
samplesmiles=CCCCCn1cc(C(=O)NC23CC4CC(CC(C4)C2)C3)c(=O)n2nc(-c3ccco3)nc12 measured=6.91
samplesmiles=CCCCCn1cc(C(=O)NC23CC4CC(CC(C4)C2)C3)c(=O)n2nc(N3CCOCC3)nc12 measured=6.79
samplesmiles=CCCCCn1cc(C(=O)NC23CC4CC(CC(C4)C2)C3)c(=O)n2nc(-c3ccc(Cl)cc3)nc12 measured=7.61
samplesmiles=CCCCCn1cc(C(=O)NC23CC4CC(CC(C4)C2)C3)c(=O)n2nc(SC)nc12 measured=6.86
samplesmiles=CCCCCn1cc(C(=O)NC2CCCCCC2)c(=O)n2nc(-c3ccc(C)cc3)nc12 measured=7.19
samplesmiles=CCCCCn1cc(C(=O)NC23CC4CC(CC(C4)C2)C3)c(=O)n2nc(-c3ccc(C)cc3)nc12 measured=7.90
samplesmiles=CCCCCn1cc(C(=O)NC23CC4CC(C)(CC(C)(C4)C2)C3)c(=O)n2nc(-c3ccccc3)nc12 measured=7.74
samplesmiles=CCCCCn1cc(C(=O)NC2CCCCC2)c(=O)n2nc(-c3ccccc3)nc12 measured=6.95
samplesmiles=CCCCCn1cc(C(=O)NC23CC4CC(CC(C4)C2)C3)c(=O)n2nc(C)nc12 measured=6.06
samplesmiles=CCCCCn1cc(C(=O)NC23CC4CC(CC(C4)C2)C3)c(=O)n2nc(-c3ccccc3)nc12 measured=8.07
samplesmiles=CCCCCn1cc(C(=O)NC23CC4CC(CC(C4)C2)C3)c(=O)n2nc(-c3ccc(OC)cc3)nc12 measured=6.89
